Each recorded value in this set is attributed to PubChem BioAssay (NCATS).

- ASSAY_EXPLANATION: Cell Viability - SH-SY5Y (AID 544);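 further: cells exposed to compound for 40 hours; nearly all actives have a fitted effect of over 55% in size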
- CONDITION_INFO: SH-SY5Y neuroblastoma cell viability
- Excerpt: NIH Chemical Genomics Center [NCGC] NIH Molecular Libraries Screening Centers Network [MLSCN] National Institutes of Environmental Health Sciences [NIEHS] National Toxicology Program [NTP] We have developed a 1536-well cell-based assay for quantitative high throughput screening (qHTS) against a number of cell lines to determine in vitro cytotoxicity of small molecules. […] 8. Detection; Luminescence; Viewlux plate reader […]
Inconclusive results are not listed. Activity calls are given as the source filed them. The call rests on the fitted dose curve; in most records, active means well fitted cell-killing curve with a large enough effect; inconclusive means small, poorly fitted or top-dose-only effect; inactive means flat fitted curve, though single readings scatter.
Use one of these outcomes when replying: yes (1) for active, no (0) for inactive

Asked: Per the assay record, what outcome was assigned to O=C(O)/C=C/c1ccc(/C=C/C(=O)O)cc1 ?
Given back: no (0)

Asked: Per the assay record, what outcome was assigned to Cc1ccc(N)cc1[N+](=O)[O-] ?
Given back: no (0)

Asked: Per the assay record, what outcome was assigned to c1cc2c3c(c1)ccc1cccc(c13)C2 ?
Given back: no (0)

Asked: Per the assay record, what outcome was assigned to CCCCNCC ?
Given back: no (0)

Asked: Per the assay record, what outcome was assigned to CCOC(=O)C1OC1c1ccccc1 (configuration not stated) ?
Given back: no (0)

Asked: Per the assay record, what outcome was assigned to CC(=O)OC(C(=O)c1ccccc1)c1ccccc1 (configuration not stated) ?
Given back: no (0)

Asked: Per the assay record, what outcome was assigned to O=[N+]([O-])c1cccc(I)c1 ?
Given back: no (0)

Asked: Per the assay record, what outcome was assigned to C1CCCNCC1 ?
Given back: no (0)

Asked: Per the assay record, what outcome was assigned to O=C(O)c1ccc([N+](=O)[O-])cc1 ?
Given back: no (0)

Asked: Per the assay record, what outcome was assigned to CCCC(=O)OC(=O)CCC ?
Given back: no (0)

Asked: Per the assay record, what outcome was assigned to OCC(CBr)(CBr)CBr ?
Given back: no (0)

Asked: Per the assay record, what outcome was assigned to Nc1cnn([C@@H]2O[C@H](CO)[C@@H](O)[C@H]2O)c(=O)n1 ?
Given back: no (0)

Asked: Per the assay record, what outcome was assigned to c1ccncc1 ?
Given back: no (0)

Asked: Per the assay record, what outcome was assigned to CCNC(=S)NCC ?
Given back: no (0)

Asked: Per the assay record, what outcome was assigned to O=[N+]([O-])c1ccc(F)cc1F ?
Given back: no (0)

Asked: Per the assay record, what outcome was assigned to CC(CCC(=O)O)(c1ccc(O)cc1)c1ccc(O)cc1 ?
Given back: no (0)

Asked: Per the assay record, what outcome was assigned to OC1CCCCC1 ?
Given back: no (0)

Asked: Per the assay record, what outcome was assigned to CCCCC(CC)COCCCN (configuration not stated) ?
Given back: no (0)

Asked: Per the assay record, what outcome was assigned to CCN(CC)c1ccc2c(C)cc(=O)oc2c1 ?
Given back: no (0)

Asked: Per the assay record, what outcome was assigned to C/C=C/C=C/C=O ?
Given back: yes (1)

Asked: Per the assay record, what outcome was assigned to CC(C)S ?
Given back: no (0)

Asked: Per the assay record, what outcome was assigned to Cc1ccc(S(N)(=O)=O)cc1 ?
Given back: no (0)

* * *

Please provide measured Potency for the entries that follow.
- MEASURED_TARGET: Lysosomal acid glucosylceramidase (Homo sapiens)
- ASSAY_EXPLANATION: Glucocerebrosidase-p2 (AID 348); further: potency means the concentration at half of the fitted maximal effect
- CONDITION_INFO: purified GBA, blue fluorogenic substrate, 40 min
Activity calls are given as the source filed them. Rule as the data show it: active = potency below about 10 µM; inactive = the rest.

Asked: Tell us which Potency value is on record for CCN(CC)CC[n+]1ccc2c(C)c3[nH]c4ccc(O)cc4c3c(C)c2c1
Given back: > 11.4 µM (inactive)

Asked: Tell us which Potency value is on record for Nc1ccc(S(=O)(=O)NCc2nccs2)cc1
Given back: > 11.4 µM (inactive)

Asked: Tell us which Potency value is on record for Cc1ccc2nc(N/N=C\c3cccc(C)n3)cc(C)c2c1
Given back: > 11.4 µM (inactive)

Asked: Tell us which Potency value is on record for COC(=O)c1ccc(CCc2cc(O)ccc2O)cc1
Given back: > 11.4 µM (inactive)

Asked: Tell us which Potency value is on record for Clc1ccc2c(NCCNc3ccnc4cc(Cl)ccc34)ccnc2c1
Given back: > 11.4 µM (inactive)

Asked: Tell us which Potency value is on record for c1ccc2c(c1)c1ccccc1n2Cn1c2ccccc2c2ccccc21
Given back: > 11.4 µM (inactive)

Asked: Tell us which Potency value is on record for CN1CCN(c2ccncc2S(=O)(=O)N2CCN(C)CC2)CC1
Given back: > 11.4 µM (inactive)

Asked: Tell us which Potency value is on record for C(CCc1nnc2c(n1)CCCC2)Cc1nnc2c(n1)CCCC2
Given back: > 11.4 µM (inactive)

Asked: Tell us which Potency value is on record for N/N=C1/c2ccccc2N[C@H]1OC(=O)Nc1cccc(Cl)c1
Given back: > 11.4 µM (inactive)

Asked: Tell us which Potency value is on record for O=C(O)c1ccncc1.O=C(O)c1ccncc1.[NH2-].[NH2-].[Pt]
Given back: > 11.4 µM (inactive)

Asked: Tell us which Potency value is on record for CC(C)C1=C[C@@]23CC[C@@H]4[C@](C)(CCC[C@@]4(C)C(=O)O)[C@@H]2C[C@@H]1[C@@H](C(=O)O)[C@@H]3C(=O)O
Given back: > 11.4 µM (inactive)

Asked: Tell us which Potency value is on record for COc1ccc(-c2csc3c2[N+]2=CCC=C2C3=O)cc1
Given back: > 11.4 µM (inactive)

Asked: Tell us which Potency value is on record for O=C(O)C1(Nc2ccc(Cl)cc2)CCCC1
Given back: > 11.4 µM (inactive)

Asked: Tell us which Potency value is on record for O=C(O)c1nnsc1-c1csnn1
Given back: > 11.4 µM (inactive)

Asked: Tell us which Potency value is on record for C[C@](O)(c1ccccc1)c1nccc2ccccc12
Given back: > 11.4 µM (inactive)

Asked: Tell us which Potency value is on record for O=C(O)CN(CCN(CC(=O)O)CC(=O)O)CC(=O)O.[Mn]
Given back: > 11.4 µM (inactive)

Asked: Tell us which Potency value is on record for CC(C)(C[C@@]1(C)NC(=O)NC1=O)OCc1ccccc1
Given back: > 11.4 µM (inactive)

Asked: Tell us which Potency value is on record for Cn1c([N+](=O)[O-])cnc1CN1CCN(CCO)CC1
Given back: > 11.4 µM (inactive)

Asked: Tell us which Potency value is on record for O=C(O)c1cscc1Cc1cccs1
Given back: > 11.4 µM (inactive)

Asked: Tell us which Potency value is on record for O=C(O)C(=Cc1ccc(-c2ccccc2)cc1)C(=O)O
Given back: > 11.4 µM (inactive)

Asked: Tell us which Potency value is on record for CN(C)Cc1cc(O)c(O)c(CN(C)C)c1
Given back: > 11.4 µM (inactive)

Asked: Tell us which Potency value is on record for O=C(O)/C(=C\c1ccc(O)cc1)c1cccc2ccccc12
Given back: > 11.4 µM (inactive)

Asked: Tell us which Potency value is on record for Cc1cccc2c1Oc1ccccc1[C@@H]2NC(=O)c1ccc([N+](=O)[O-])cc1
Given back: > 11.4 µM (inactive)

Asked: Tell us which Potency value is on record for NCCSCc1ccccc1Cl
Given back: > 11.4 µM (inactive)

* * *

Please provide measured Potency for the entries that follow.
- MEASURED_TARGET: Glucocorticoid receptor (Homo sapiens)
- ASSAY_EXPLANATION: GR-GFP Redistribution (AID 450); further: potency means the concentration at half of the fitted maximal effect
- CONDITION_INFO: U2OS GR-GFP nuclear translocation, laser cytometry, 2 h
The source made the active and inactive calls.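 The calls were made as follows: active = compounds whose dose series gives a full or clear partial fitted curve of increased nuclear translocation; inconclusive = weak partial curve or effect only at the top dose; inactive = no dose-dependent translocation response.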

Asked: Tell us which Potency value is on record for Nc1nc(SCc2ccccn2)c2ncn(C3CCCC3)c2n1
Given back: > 46 µM (inactive)

Asked: Tell us which Potency value is on record for C[C@H](C(=O)c1ccncc1)c1ccccn1
Given back: > 46 µM (inactive)

Asked: Tell us which Potency value is on record for O=C(O)c1ccccc1C(=O)Nc1cc2c(cc1Br)-c1ccccc1C2=O
Given back: > 46 µM (inactive)

Asked: Tell us which Potency value is on record for N#CCCn1c(=O)c(-c2ccc(F)cc2)nc2cnc(Oc3ccccc3)nc21
Given back: > 9.22 µM (inactive)

Asked: Tell us which Potency value is on record for Nc1nc(SCC(=O)c2ccc(Br)cc2)c2[nH]cnc2n1
Given back: > 46 µM (inactive)

Asked: Tell us which Potency value is on record for O=P(O)(O)O[C@@H]1O[C@H](CO)[C@@H](O)[C@H](O)[C@@H]1O
Given back: > 46 µM (inactive)

* * *

- ASSAY_EXPLANATION: Cell Viability - LYMP2-013 (AID 970);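 further: cells exposed to compound for 24 h at 37 °C; 0% = DMSO only and full inhibition = tetraoctylammonium bromide control; nearly all actives have a fitted effect of over 55% in size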
- CONDITION_INFO: LYMP2-013 lymphoblastoid cells viability; series mostly up to 92.2 µM
Records with an inconclusive call do not appear. Calls of active or inactive are those of the source. Calls follow the shape of the dose curve; as a rule, active = well fitted cell-killing curve with a large enough effect; inconclusive = small, poorly fitted or top-dose-only effect; inactive = flat fitted curve, though single readings scatter.
MEASURE_NAME: outcome

Here is how some molecules turned out for outcome.
{"columns": ["MOLECULE", "outcome"],
 "data": [
  ["Cc1cccnc1", "inactive"],
  ["O=[N+]([O-])c1ccccc1Nc1ccccc1", "inactive"],
  ["CCc1ccc(C(c2ccc(CC)cc2)C(Cl)Cl)cc1", "inactive"],
  ["CC(=O)OC1CC(C)OC(C)O1 (configuration not stated)", "inactive"],
  ["COc1ccc(C(=O)Nc2ccccc2)cc1[N+](=O)[O-]", "inactive"]
]}

Asked: Tell us which outcome value is on record for Nc1ccc(N)c(Cl)c1
Given back: inactive

Asked: Tell us which outcome value is on record for O=C(O)/C=C/c1ccc(/C=C/C(=O)O)cc1
Given back: inactive
